Biological target: ERα (Homo sapiens, UniProt P03372)
Sequence (P03372 whole entry): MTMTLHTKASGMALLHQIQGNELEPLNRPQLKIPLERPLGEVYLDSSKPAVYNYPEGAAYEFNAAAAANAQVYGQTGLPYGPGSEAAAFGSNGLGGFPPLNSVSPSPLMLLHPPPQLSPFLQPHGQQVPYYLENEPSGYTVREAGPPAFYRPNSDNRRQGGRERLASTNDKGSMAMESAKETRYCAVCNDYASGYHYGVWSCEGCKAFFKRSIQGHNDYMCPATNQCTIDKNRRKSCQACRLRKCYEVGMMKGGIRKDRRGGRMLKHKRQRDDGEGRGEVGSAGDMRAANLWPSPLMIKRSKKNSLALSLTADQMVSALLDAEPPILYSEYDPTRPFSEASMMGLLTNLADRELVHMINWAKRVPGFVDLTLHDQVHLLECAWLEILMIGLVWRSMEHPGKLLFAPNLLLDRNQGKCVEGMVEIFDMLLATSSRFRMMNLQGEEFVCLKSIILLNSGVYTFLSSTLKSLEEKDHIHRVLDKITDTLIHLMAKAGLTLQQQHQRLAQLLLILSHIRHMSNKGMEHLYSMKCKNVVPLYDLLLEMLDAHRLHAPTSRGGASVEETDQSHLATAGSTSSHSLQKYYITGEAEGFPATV
Experiment: Degradation of ERα in T-47D cells (immunoblotting, 4 h)
Format: cell-based
Design: host or cells: T-47D
Settings: 10nM compound
Procedure: T-47D cells were inoculated into 6-well plates at a density of 3×10^5 cells/well and cultured at 37°C, 5% CO2 for 24 h. After the cells were attached to the wall, 1µL of the compound solution in dimethyl sulfoxide (final concentration 0.15-1000 nM) was added and continued to be cultured in the incubator with 5% CO2 at 37°C for 4 h. […]
Answer label 0 if Degradation rate (%) of ERα in T-47D cells is under 60%, and label 1 if it is 60% or more.

{"compound": "O=C1CCC(N2Cc3c(ccc4c3OCC43CCN(C(=O)C4CN(CC5CCN(c6ccc([C@@H]7c8ccc(O)cc8CC[C@@H]7c7ccccc7)cc6)CC5)C4)CC3)C2=O)C(=O)N1 (some centres unmarked) [K33]", "assigned label": "label 1"}
{"compound": "O=C1CCC(N2C(=O)c3ccc4c(c3C2=O)OCC42CCN(C3CCN(C(=O)C4CCN(c5ccc([C@@H]6c7ccc(O)cc7CC[C@@H]6c6ccccc6)cc5)CC4)CC3)CC2)C(=O)N1 (some centres unmarked) [H27]", "assigned label": "label 1"}
{"compound": "O=C1CCC(N2C(=O)c3cc4c(cc3C2=O)OC2(CCN(C3CC5(CCN(c6ccc([C@@H]7c8ccc(O)cc8CC[C@@H]7c7ccccc7)cc6)CC5)C3)CC2)C4)C(=O)N1 (some centres unmarked) [K1]", "assigned label": "label 0"}
{"compound": "O=C1CCC(N2Cc3cc4c(cc3C2=O)CCC2(CN(CC3CCN(c5ccc([C@@H]6c7ccc(O)cc7CC[C@@H]6c6ccccc6)cc5)CC3)C2)O4)C(=O)N1 (some centres unmarked) [H2]", "assigned label": "label 0"}
{"compound": "O=C1CCC(N2Cc3c(ccc4c3OCC43CCN(CC4(F)CCN(CC5CCN(c6ccc([C@@H]7c8ccc(O)cc8CC[C@@H]7c7ccccc7)cc6)CC5)CC4)CC3)C2=O)C(=O)N1 (some centres unmarked) [N6]", "assigned label": "label 1"}
{"compound": "O=C1CCC(N2Cc3c(ccc4c3OCC43CCN(C4CCN(C(=O)C5CCN(c6ccc([C@@H]7c8ccc(O)cc8CC[C@@H]7c7ccccc7)cc6)CC5)CC4)CC3)C2=O)C(=O)N1 (some centres unmarked) [A78]", "assigned label": "label 1"}
{"compound": "O=C1CCC(N2C(=O)c3ccc4c(c3C2=O)OCC42CCN(C(=O)CN3CCC4(CCN(c5ccc([C@@H]6c7ccc(O)cc7CC[C@@H]6c6ccccc6)cc5)CC4)C3)CC2)C(=O)N1 (some centres unmarked) [K24]", "assigned label": "label 1"}
{"compound": "O=C1CCC(N2Cc3cc4c(cc3C2=O)OC2(CC4)CN(CC3CCN(C(=O)C4CCN(c5ccc([C@@H]6c7ccc(O)cc7CC[C@@H]6c6ccccc6)cc5)CC4)CC3)C2)C(=O)N1 (some centres unmarked) [K39]", "assigned label": "label 1"}
{"compound": "O=C1CCC(N2Cc3cc4c(cc3C2=O)CCC2(CN(CC3CCC5(CC3)CN(c3ccc([C@@H]6c7ccc(O)cc7CC[C@@H]6c6ccccc6)cc3)C5)C2)O4)C(=O)N1 (some centres unmarked) [M15]", "assigned label": "label 0"}
{"compound": "CN(C1CCN(c2ccc([C@@H]3c4ccc(O)cc4CC[C@@H]3c3ccccc3)cc2)CC1)[C@H]1CC[C@@H](C(=O)N2CCC3(CC2)COc2c3ccc3c2CN(C2CCC(=O)NC2=O)C3=O)CC1 (some centres unmarked) [B35]", "assigned label": "label 1"}
{"compound": "O=C1CCC(N2Cc3cc4c(cc3C2=O)OC2(CC4)CN(C(=O)C3CCC4(CC3)CN(c3ccc([C@@H]5c6ccc(O)cc6CC[C@@H]5c5ccccc5)cc3)C4)C2)C(=O)N1 (some centres unmarked) [A47]", "assigned label": "label 0"}

Values were extracted from patent EP4656642A1.
